Let's look at some compounds and their measured IC50.
target: Somatostatin receptor type 2 (Homo sapiens)
Sequence (P30874 whole entry): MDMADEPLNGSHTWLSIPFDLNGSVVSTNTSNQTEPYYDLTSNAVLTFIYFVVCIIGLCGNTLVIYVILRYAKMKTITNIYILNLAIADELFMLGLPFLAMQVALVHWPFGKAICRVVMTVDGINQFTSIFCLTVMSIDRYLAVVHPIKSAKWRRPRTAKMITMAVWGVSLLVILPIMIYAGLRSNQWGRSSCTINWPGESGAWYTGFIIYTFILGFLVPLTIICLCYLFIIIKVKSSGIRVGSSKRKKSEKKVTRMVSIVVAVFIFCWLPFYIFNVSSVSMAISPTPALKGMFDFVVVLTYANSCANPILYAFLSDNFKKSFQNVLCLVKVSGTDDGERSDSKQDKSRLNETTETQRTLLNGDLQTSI
Bridge positions count the residues as written; N and C are the ends. Square brackets hold non-standard residues; d marks the D form. Peptide text beside a SMILES is read from it. Phe(4-NO2) = N[C@@H](Cc1ccc([N+](=O)[O-])cc1)C(=O)O; Phe(4-CH2NHiPr) = CC(C)NCc1ccc(C[C@H](N)C(=O)O)cc1; d2Nal = N[C@H](Cc1ccc2ccccc2c1)C(=O)O

# IC50 (compound: C[C@@H](O)[C@@H]1NC(=O)[C@H](Cc2ccccc2)NC(=O)[C@H]([C@@H](C)O)NC(=O)[C@H](CCCCN)NC(=O)[C@@H](Cc2c[nH]c3ccccc23)NC(=O)[C@H](Cc2ccccc2)NC(=O)[C@H](Cc2ccccc2)NC(=O)[C@H](CC(N)=O)NC(=O)[C@H](CCCCN)NC(=O)[C@@H](N)CSSC[C@@H](C(=O)O)NC(=O)[C@H](CO)NC1=O ) is 0.00033 µM

compound CC(C)NCc1ccc(C[C@@H]2NC(=O)[C@@H](Cc3ccc4ccccc4c3)NC(=O)[C@H](Cc3ccccc3)NC(=O)[C@H](Cc3ccccc3)NC(=O)[C@H](CCCCN)NC(=O)[C@H](NC(=O)CCc3ccc(O)cc3)CSSC[C@@H](C(=O)O)NC(=O)[C@H](CO)NC(=O)[C@H]([C@@H](C)O)NC(=O)[C@H](Cc3ccccc3)NC(=O)[C@@H]([C@@H](C)O)NC2=O)cc1 (stereo in doubt; 31) , IC50 observed: > 10 µM

CC(C)NCc1ccc(C[C@@H]2NC(=O)[C@@H](Cc3c[nH]c4ccccc34)NC(=O)[C@H](Cc3ccccc3)NC(=O)[C@H](Cc3ccccc3)NC(=O)[C@@H](N)CSSC[C@@H](C(=O)O)NC(=O)[C@H](Cc3ccccc3)NC(=O)[C@H]([C@@H](C)O)NC2=O)cc1 (H-CFF[dW][Phe(4-CH2NHiPr)]TFC-OH; disulfide 1-8) yielded IC50 of > 10 µM

Reported IC50 ( CC(C)NCc1ccc(C[C@@H]2NC(=O)[C@@H](Cc3c[nH]c4ccccc34)NC(=O)[C@H](Cc3ccccc3)NC(=O)[C@H](Cc3ccccc3)NC(=O)[C@H](CCCCN)NC(=O)[C@@H](N)CSSC[C@@H](C(=O)O)NC(=O)[C@@H](CO)NC(=O)[C@H]([C@@H](C)O)NC(=O)[C@H](Cc3ccccc3)NC(=O)[C@H]([C@@H](C)O)NC2=O)cc1 (H-CKFF[dW][Phe(4-CH2NHiPr)]TFT[dS]C-OH; disulfide 1-11) ) = > 10 µM

In plain terms, CC(C)NCc1ccc(C[C@@H]2NC(=O)[C@@H](Cc3ccc4ccccc4c3)NC(=O)[C@H](Cc3ccc([N+](=O)[O-])cc3)NC(=O)[C@H](Cc3ccccc3)NC(=O)[C@H](CCCCN)NC(=O)[C@@H](N)CSSC[C@@H](C(=O)O)NC(=O)[C@H](CO)NC(=O)[C@H]([C@@H](C)O)NC(=O)[C@H](Cc3ccccc3)NC(=O)[C@H]([C@@H](C)O)NC2=O)cc1 (H-CKF[Phe(4-NO2)][d2Nal][Phe(4-CH2NHiPr)]TFTSC-OH; disulfide 1-11) has a documented IC50 of > 1 µM

* * *

The entries below come with measured IC50 values attached.
biological target: UniProtKB P32745; assay: Tested for ability to bind to 20 uM thick cryostat sections of a membrane pellet of cells transfected with human cloned somatostatin (sst) receptor subtype 3.
Numbered stars: 1 amine (or outer) side, 2 acyl side, 3 side chain; on linkers, the order of the positions; unused ones are H or OH. Bridge positions count the residues as written; N and C are the ends. Square brackets hold non-standard residues; d marks the D form. Peptide text beside a SMILES is read from it. Phe(4-CH2NHiPr) = CC(C)NCc1ccc(C[C@H](N)C(=O)O)cc1; X1 = CC(C)CNCc1ccc(C[C@H](N[*:1])C(=O)[*:2])cc1
Unit µM implied. Number only.

{"COMPOUND": "CC(C)CNCc1ccc(C[C@@H]2NC(=O)[C@@H](Cc3c[nH]c4ccccc34)NC(=O)[C@H](Cc3ccccc3)NC(=O)[C@H](Cc3ccccc3)NC(=O)[C@H](CCCCN)NC(=O)[C@@H](N)CSSC[C@@H](C(=O)O)NC(=O)[C@H](CO)NC(=O)[C@H]([C@@H](C)O)NC(=O)[C@H](Cc3ccccc3)NC(=O)[C@H]([C@@H](C)O)NC2=O)cc1 (H-CKFF[dW][X1]TFTSC-OH; disulfide 1-11)", "IC50 / µM": 0.381}
{"COMPOUND": "CC(C)NCc1ccc(C[C@@H]2NC(=O)[C@@H](Cc3c[nH]c4ccccc34)NC(=O)[C@H](Cc3ccccc3)NC(=O)[C@H](Cc3ccccc3)NC(=O)[C@H](CCCCN)NC(=O)[C@@H](N)CSSC[C@@H](C(=O)O)NC(=O)[C@H](CO)NC(=O)[C@H]([C@@H](C)O)NC(=O)[C@H](Cc3ccccc3)NC(=O)[C@H]([C@@H](C)O)NC2=O)cc1 (H-CKFF[dW][Phe(4-CH2NHiPr)]TFTSC-OH; disulfide 1-11)", "IC50 / µM": 0.345}

Measured IC50, CC(C)NCc1ccc(C[C@@H]2NC(=O)[C@@H](Cc3ccc4ccccc4c3)NC(=O)[C@H](Cc3ccccc3)NC(=O)[C@H](Cc3ccccc3)NC(=O)[C@H](CCCCN)NC(=O)[C@@H](NC(=O)[C@@H](N)Cc3ccc(O)cc3)CSSC[C@@H](C(=O)O)NC(=O)[C@H](CO)NC(=O)[C@H]([C@@H](C)O)NC(=O)[C@H](Cc3ccccc3)NC(=O)[C@H]([C@@H](C)O)NC2=O)cc1 : 0.633

* * *

Bridge positions count the residues as written; N and C are the ends. Square brackets hold non-standard residues; d marks the D form. Peptide text beside a SMILES is read from it. Phe(4-CH2NHiPr) = CC(C)NCc1ccc(C[C@H](N)C(=O)O)cc1; d2Nal = N[C@H](Cc1ccc2ccccc2c1)C(=O)O
Values of IC50 reported for Somatostatin receptor type 3 (Homo sapiens) appear below.

Some entries whose results are on file:
{"MOLECULE": "CC(C)NCc1ccc(C[C@@H]2NC(=O)[C@@H](Cc3c[nH]c4ccccc34)NC(=O)[C@H](Cc3ccccc3)NC(=O)[C@@H](NC(=O)[C@@H](N)Cc3ccc(O)cc3)CSSC[C@@H](C(=O)O)NC(=O)[C@H](Cc3ccccc3)NC(=O)[C@H]([C@@H](C)O)NC2=O)cc1 (H-YCF[dW][Phe(4-CH2NHiPr)]TFC-OH; disulfide 2-8)", "IC50": "> 1000 nM"}
{"MOLECULE": "CC(C)NCc1ccc(C[C@@H]2NC(=O)[C@@H](Cc3ccc4ccccc4c3)NC(=O)[C@H](Cc3ccccc3)NC(=O)[C@H](Cc3ccccc3)NC(=O)[C@H](CCCCN)NC(=O)[C@@H](N)CSSC[C@@H](C(=O)O)NC(=O)[C@H](CO)NC(=O)[C@H]([C@@H](C)O)NC(=O)[C@H](Cc3ccccc3)NC(=O)[C@H]([C@@H](C)O)NC2=O)cc1 (H-CKFF[d2Nal][Phe(4-CH2NHiPr)]TFTSC-OH; disulfide 1-11)", "IC50": "> 1000 nM"}

// next item, IC50 requested
Value of IC50 reported for the molecule C[C@H](N)C(=O)NCC(=O)N[C@H]1CSSC[C@@H](C(=O)O)NC(=O)[C@H](CO)NC(=O)[C@H]([C@@H](C)O)NC(=O)[C@H](Cc2ccccc2)NC(=O)[C@H]([C@@H](C)O)NC(=O)[C@H](CCCCN)NC(=O)[C@@H](Cc2c[nH]c3ccccc23)NC(=O)[C@H](Cc2ccccc2)NC(=O)[C@H](Cc2ccccc2)NC(=O)[C@H](CCCCN)NC1=O (H-AGCKFF[dW]KTFTSC-OH; disulfide 3-13) is 3.4 nM

* * *

target: Somatostatin receptor type 3 (Homo sapiens)
Sequence (P32745 whole entry): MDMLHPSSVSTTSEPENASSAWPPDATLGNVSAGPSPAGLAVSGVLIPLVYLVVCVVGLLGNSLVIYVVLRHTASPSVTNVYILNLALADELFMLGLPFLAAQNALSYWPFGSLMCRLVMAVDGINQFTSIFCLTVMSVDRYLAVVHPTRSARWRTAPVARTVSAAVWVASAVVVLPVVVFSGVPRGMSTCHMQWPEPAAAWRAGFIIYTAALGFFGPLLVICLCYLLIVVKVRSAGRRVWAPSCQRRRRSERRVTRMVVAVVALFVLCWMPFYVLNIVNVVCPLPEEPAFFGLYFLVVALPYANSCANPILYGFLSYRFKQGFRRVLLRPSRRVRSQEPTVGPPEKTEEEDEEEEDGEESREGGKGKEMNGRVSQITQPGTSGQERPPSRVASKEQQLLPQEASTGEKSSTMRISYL
Bridge positions count the residues as written; N and C are the ends. Square brackets hold non-standard residues; d marks the D form. Peptide text beside a SMILES is read from it. Phe(4-NO2) = N[C@@H](Cc1ccc([N+](=O)[O-])cc1)C(=O)O; Phe(4-CH2NHiPr) = CC(C)NCc1ccc(C[C@H](N)C(=O)O)cc1; Phe(4-CH2NH2) = NCc1ccc(C[C@H](N)C(=O)O)cc1; d2Nal = N[C@H](Cc1ccc2ccccc2c1)C(=O)O
Entries annotated with measured pIC50
Value format note: pIC50 is -log10 of concentration (mol/L); just state the number.

Worked examples, 2 compounds total:
{"COMPOUND": "C[C@@H](O)[C@@H]1NC(=O)[C@H](Cc2ccccc2)NC(=O)[C@H]([C@@H](C)O)NC(=O)[C@H](Cc2ccc(CN)cc2)NC(=O)[C@@H](Cc2c[nH]c3ccccc23)NC(=O)[C@H](Cc2ccccc2)NC(=O)[C@H](Cc2ccccc2)NC(=O)[C@H](CCCCN)NC(=O)[C@@H](N)CSSC[C@@H](C(=O)O)NC(=O)[C@H](CO)NC1=O (H-CKFF[dW][Phe(4-CH2NH2)]TFTSC-OH; disulfide 1-11)", "pIC50": 6.56}
{"COMPOUND": "CC(C)NCc1ccc(C[C@@H]2NC(=O)[C@@H](Cc3ccc4ccccc4c3)NC(=O)[C@H](Cc3ccc([N+](=O)[O-])cc3)NC(=O)[C@H](Cc3ccccc3)NC(=O)[C@H](CCCCN)NC(=O)[C@@H](N)CSSC[C@@H](C(=O)O)NC(=O)[C@H](CO)NC(=O)[C@H]([C@@H](C)O)NC(=O)[C@H](Cc3ccccc3)NC(=O)[C@H]([C@@H](C)O)NC2=O)cc1 (H-CKF[Phe(4-NO2)][d2Nal][Phe(4-CH2NHiPr)]TFTSC-OH; disulfide 1-11)", "pIC50": 6.01}

Read the next record carefully.
Consider C[C@@H](O)[C@@H]1NC(=O)[C@H](Cc2ccccc2)NC(=O)[C@H]([C@@H](C)O)NC(=O)[C@H](Cc2ccc(CN)cc2)NC(=O)[C@@H](Cc2ccc3ccccc3c2)NC(=O)[C@H](Cc2ccccc2)NC(=O)[C@H](Cc2ccccc2)NC(=O)[C@H](CCCCN)NC(=O)[C@@H](N)CSSC[C@@H](C(=O)O)NC(=O)[C@H](CO)NC1=O . Its measured pIC50 is 7.09
